# Test system: RPMI-8226 leukemia
# Assay procedure: NCI tumour cell line growth inhibition, 48 h

- Compound: "CC(CN(C)C)/C(=N\\Nc1ccccc1)c1ccccc1 (stereo not given)"
  Inequality symbol: "="
  TGI, µM: 67.6
- Compound: "C=C/C=C/NC(=O)OCc1ccccc1"
  Inequality symbol: ">"
  TGI, µM: 100
- Compound: "C=C[C@@H](C)[C@H](NS(=O)(=O)c1ccc(C)cc1)C(=O)OCC"
  Inequality symbol: "="
  TGI, µM: 35.5
- Compound: "COc1ccc(/C=C/c2cc(OC)c(OC)c(OC)c2)cc1"
  Inequality symbol: "="
  TGI, µM: 12.3
- Compound: "CC(=C(c1ccccc1)c1ccccc1)N1C(=O)CC(=O)N1C"
  Inequality symbol: ">"
  TGI, µM: 100
- Compound: "COc1cc2c[n+](C)c3c4cc(OC)c(OC(C)C)cc4ccc3c2cc1OC"
  Inequality symbol: ">"
  TGI, µM: 100
- Compound: "OC1(C23CC4CC(CC(C4)C2)C3)CSCC1(O)C12CC3CC(CC(C3)C1)C2 (stereo not given)"
  Inequality symbol: ">"
  TGI, µM: 100
- Compound: "C=C/C(C)=C\\CC1[C@](C)(O)CC[C@H]2C(C)(C)C(=O)CC[C@]12C (stereo not given in full)"
  Inequality symbol: ">"
  TGI, µM: 100
- Compound: "Cc1[nH]c2ccccc2c1CCCO"
  Inequality symbol: ">"
  TGI, µM: 100
- Compound: "CCOc1ccc(N/C(=C(/C(Cl)=C(/Cl)N(CC)CC)[N+](=O)[O-])n2nnc3ccccc32)cc1"
  Inequality symbol: ">"
  TGI, µM: 100
- Compound: "COc1c(O)c(C=O)c2c(O)c(-c3c(C)cc4c(C(C)C)c(OC)c(O)c(C=O)c4c3O)c(C)cc2c1C(C)C"
  Inequality symbol: "="
  TGI, µM: 22.4
- Compound: "O=C(Nc1cccc(-n2cc(-c3ccncc3)c(-c3ccc(Cl)c(O)c3)n2)c1)Nc1cc(C(F)(F)F)cc(C(F)(F)F)c1"
  Inequality symbol: "="
  TGI, µM: 10.6
- Compound: "O=S(=O)(c1ccc(NC2=NC(c3ccc(O)cc3)(c3ccccc3O)c3ccccc32)cc1)c1ccc(NC2=NC(c3ccc(O)cc3)(c3ccccc3O)c3ccccc32)cc1 (stereo not given)"
  Inequality symbol: ">"
  TGI, µM: 100
- Compound: "Cc1ccccc1C1OC(=O)c2ccc3ccccc3c21 (stereo not given)"
  Inequality symbol: "="
  TGI, µM: 5.43
- Compound: "CC(=O)[CH-]C(=O)c1ccccc1.CC(=O)[CH-]C(=O)c1ccccc1.CC[O-].CC[O-].[Hf+4]"
  Inequality symbol: ">"
  TGI, µM: 100
- Compound: "O=C1NNC2(C(=O)N1)c1ccccc1-c1ccccc12"
  Inequality symbol: ">"
  TGI, µM: 10
- Compound: "Cc1ccc(/C(O)=C/c2nc3ccccc3sc2=O)c(C)c1"
  Inequality symbol: "="
  TGI, µM: 77.6
- Compound: "COc1ccc(CC(N)c2ccc(OC)cc2)cc1 (stereo not given)"
  Inequality symbol: "="
  TGI, µM: 83
- Compound: "CC(=O)OCC1OC(SC2=N/C(=C\\c3ccc(Br)s3)C(=O)N2CN2CCOCC2)C(OC(C)=O)C(OC(C)=O)C1OC(C)=O (stereo not given)"
  Inequality symbol: "="
  TGI, µM: 27
- Compound: "COc1ccc2c3c1OC1C(=O)C=CC4(CC2)N(C)CCC314 (stereo not given)"
  Inequality symbol: "="
  TGI, µM: 45.6

----------
# System: UACC-257 melanoma
# Assay procedure: NCI tumour cell line growth inhibition, 48 h; in the data active means GI50 below about 0.43 µM; inactive means the rest
Labels: Yes for active, No for inactive

- Molecule: "C=CCN=C(N/N=C/c1ccc([N+](=O)[O-])o1)NS(=O)(=O)c1cc(C(=O)Nc2ccc(Cl)cc2)c(Cl)cc1SC"
  Cat: "No"
- Molecule: "Cn1ncnc1[C@H]1c2n[nH]c(=O)c3cc(F)cc(c23)N[C@@H]1c1ccc(F)cc1"
  Cat: "No"
- Molecule: "Cc1ccccc1OCC(O)CN1CCN(c2ccc(Cl)cc2)CC1 (centres undefined)"
  Cat: "No"
- Molecule: "O=C(Nc1cccc(-n2cc(-c3ccncc3)c(-c3ccc(Cl)c(O)c3)n2)c1)Nc1cc(C(F)(F)F)cc(C(F)(F)F)c1"
  Cat: "No"
- Molecule: "COc1ccc(CCN2CC=Cn3c2nc2ccccc2c3=O)cc1"
  Cat: "No"
- Molecule: "COc1cc(C(=O)c2c(-c3ccccc3)oc3c(OC)cccc23)cc(OC)c1OC"
  Cat: "No"
- Molecule: "Cc1cc([N+](=O)[O-])c(NS(=O)(=O)c2cccc(C(=O)O)c2)cc1-c1cccnc1"
  Cat: "No"
- Molecule: "CCNCCCn1c2c(c3ccc(Cl)cc3c1=O)C(=O)c1cc(OC)cnc1-2"
  Cat: "No"
- Molecule: "O=C1OCC2=C1C(c1cccc(Cl)c1)c1cc3c(cc1N2CCO)OCCO3 (centres undefined)"
  Cat: "Yes"

----------
# Tested on: LOX IMVI melanoma
# Assay procedure: NCI tumour cell line growth inhibition, 48 h; in the data active means GI50 below about 0.43 µM; inactive means the rest
Labels: active, inactive

- Compound: "C[C@H]1CC[C@@]2(NC1)O[C@H]1C[C@H]3[C@@H]4CC[C@H]5C[C@@H](O)CC[C@]5(C)[C@H]4CC[C@]3(C)[C@H]1[C@@H]2C"
  Cat: "inactive"
- Compound: "C=C1C(O)C2C(=C(CC)C13CC3)C(=O)C(C)(C)C2OC (stereo not given)"
  Cat: "inactive"
- Compound: "Cc1cc2c(C(C)C)c(O)c(O)cc2c(O)c1-c1c(C)cc2c(C(C)C)c(O)c(O)cc2c1O"
  Cat: "inactive"
- Compound: "COc1ccc(C/C(C)=C(/c2ccc(OCCN3CCCCC3)cc2)c2ccc(OC(=O)NCc3ccccc3)cc2)cc1"
  Cat: "active"
- Compound: "COc1cc(C(=O)c2c(-c3ccccc3)oc3c(OC)cccc23)cc(OC)c1OC"
  Cat: "active"
- Compound: "CCCCOC(=O)N1CCN(/[N+]([O-])=N/Oc2ccc([N+](=O)[O-])cc2[N+](=O)[O-])CC1"
  Cat: "inactive"
- Compound: "O=C1C(Nc2ccc(Cl)cc2)=C(I)C(=O)c2ncccc21"
  Cat: "inactive"
- Compound: "O=C1c2cc3c(cc2[C@@H]2[C@H]1c1ccc([N+](=O)[O-])cc1C(=O)N2CCCBr)OCO3"
  Cat: "active"
- Compound: "COc1cc2nc(N3CCCC3)nc(NCc3ccccc3)c2cc1OC"
  Cat: "inactive"
- Compound: "CC1=C(c2cccc(O)c2)[C@H](c2ccc(OCCN3CC(CF)C3)cc2)Oc2ccc(O)cc21"
  Cat: "inactive"
- Compound: "CC1=C(C(=O)Nc2ccc3n[nH]c(C)c3c2)C(c2ccc(C(F)(F)F)cc2)CC(=O)N1 (stereo not given)"
  Cat: "inactive"
- Compound: "C[C@@]12CCC(=O)c3coc(c31)C(=O)c1cc3c(cc12)C(=O)C=CC3=O"
  Cat: "inactive"
- Compound: "Cc1cc2c(cc1Cl)SC1=NN(C)C(C)N1S2(=O)=O (stereo not given)"
  Cat: "inactive"
- Compound: "NS(=O)(=O)c1ccc(/C=C/c2ccc(F)cc2)cc1"
  Cat: "inactive"
- Compound: "CN(C)CCN1C(=O)c2c(c3c4ccccc4n4c3c3c2c2ccccc2n3C2CC(O)C(O)C4(C)O2)C1=O (stereo not given)"
  Cat: "inactive"

----------
Entries and their measured TGI follow.
# Test system: SW-620 colon
# Assay procedure: NCI tumour cell line growth inhibition, 48 h

- Compound: "CN(C)CCN1C(=O)c2c(c3c4ccccc4n4c3c3c2c2ccccc2n3C2CC(O)C(O)C4(C)O2)C1=O (stereo not given)"
  Inequality symbol: "="
  TGI [µM]: 7.7
- Compound: "COc1c(O)c2c3c(cc(C)cc3c1C(C)C)OC2"
  Inequality symbol: ">"
  TGI [µM]: 100
- Compound: "COc1ccc(C/C(C)=C(/c2ccc(OCCN3CCCCC3)cc2)c2ccc(OC(=O)NCc3ccccc3)cc2)cc1"
  Inequality symbol: "="
  TGI [µM]: 0.808
- Compound: "CC[C@@]1(O)C(=O)OCc2c1cc1n(c2=O)Cc2cc3cc4c(cc3nc2-1)OCO4"
  Inequality symbol: "="
  TGI [µM]: 3.18
- Compound: "COc1ccc2c(c1)c(CC(=O)[Se]C)c(C)n2C(=O)c1ccc(Cl)cc1"
  Inequality symbol: ">"
  TGI [µM]: 0.854
- Compound: "O=c1cc(N2CCCC2)[nH]c(=O)n1Cc1ccccc1"
  Inequality symbol: ">"
  TGI [µM]: 100
- Compound: "CC(C)CNc1nc2ncnc(N)c2[nH]1"
  Inequality symbol: ">"
  TGI [µM]: 100
- Compound: "Cc1cc2c(C(C)C)c(O)c(O)cc2c(O)c1-c1c(C)cc2c(C(C)C)c(O)c(O)cc2c1O"
  Inequality symbol: "="
  TGI [µM]: 40.5
- Compound: "COc1ccc(CCN2CC=Cn3c2nc2ccccc2c3=O)cc1"
  Inequality symbol: ">"
  TGI [µM]: 100
- Compound: "C=C/C=C/NC(=O)OCc1ccccc1"
  Inequality symbol: ">"
  TGI [µM]: 100
